test: enteropooling assay (diarrheogenic effect, Robert); format: in vivo; settings: in vivo; enteropooling dose relative to ED50 cytoprotection; defined in drawing 10; read-out: TI (therapeutic index)
recordedEndpoint: selectivity ratio

1. CCCCCC(=O)C#C[C@H]1CCC(=O)[C@@H]1CCCCCCC(=O)O (relative stereo) [Compound 1, 11-Deoxy-13,14-didehydro-15-oxo PGE1]
250
2. CCCCC[C@@](C)(O)/C=C/[C@H]1[C@H](O)CC(=O)[C@@H]1C/C=C\CCCC(=O)O [15(R)-15-methyl PGE2]
25 to 100
3. CCCCC[C@H](O)/C=C/[C@H]1[C@H](O)CC(=O)[C@@H]1C/C=C\CCCC(=O)O [PGE2]
30
4. CCCCC(C)(C)[C@H](O)/C=C/[C@H]1[C@H](O)CC(=O)[C@@H]1C/C=C\CCCC(=O)O [16,16-dimethyl PGE2]
10
